- TARGET_UNDER_TEST: Focal adhesion kinase 1 (Homo sapiens, UniProt Q05397)
- Sequence (Q05397 2-1052 limits assumed): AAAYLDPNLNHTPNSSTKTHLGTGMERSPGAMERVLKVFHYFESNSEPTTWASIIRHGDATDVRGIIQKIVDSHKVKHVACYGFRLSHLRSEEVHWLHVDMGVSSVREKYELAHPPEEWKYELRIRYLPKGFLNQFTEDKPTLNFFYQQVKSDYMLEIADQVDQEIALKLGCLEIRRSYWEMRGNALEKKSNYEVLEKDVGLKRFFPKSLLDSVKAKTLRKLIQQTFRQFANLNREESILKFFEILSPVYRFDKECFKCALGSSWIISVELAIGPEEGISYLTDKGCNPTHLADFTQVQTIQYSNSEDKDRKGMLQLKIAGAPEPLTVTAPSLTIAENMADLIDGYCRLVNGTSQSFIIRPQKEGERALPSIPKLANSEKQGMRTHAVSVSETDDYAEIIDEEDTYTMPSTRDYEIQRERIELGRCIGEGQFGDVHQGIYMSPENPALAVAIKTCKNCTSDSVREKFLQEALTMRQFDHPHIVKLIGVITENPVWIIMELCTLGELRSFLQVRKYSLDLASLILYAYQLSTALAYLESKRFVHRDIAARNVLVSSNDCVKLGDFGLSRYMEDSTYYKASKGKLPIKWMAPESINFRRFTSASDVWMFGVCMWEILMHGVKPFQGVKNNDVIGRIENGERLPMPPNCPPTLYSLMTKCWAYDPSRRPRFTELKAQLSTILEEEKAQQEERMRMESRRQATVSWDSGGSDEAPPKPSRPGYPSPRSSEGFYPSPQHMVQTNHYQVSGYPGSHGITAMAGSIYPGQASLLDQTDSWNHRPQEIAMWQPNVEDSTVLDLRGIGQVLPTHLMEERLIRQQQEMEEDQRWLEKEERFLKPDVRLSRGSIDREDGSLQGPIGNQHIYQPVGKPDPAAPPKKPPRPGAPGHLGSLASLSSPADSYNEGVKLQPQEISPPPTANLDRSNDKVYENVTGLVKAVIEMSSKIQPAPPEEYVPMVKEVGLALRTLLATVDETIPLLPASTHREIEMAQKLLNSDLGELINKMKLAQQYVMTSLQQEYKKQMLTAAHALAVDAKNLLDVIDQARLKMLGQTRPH
- PROTOCOL_DETAILS: Inhibition of FAK (unknown origin) at 50 nM relative to control
Returns one of y or n; y when inhibition is >= 80%.

- CNC(=O)c1ccccc1Nc1nc(Nc2ccc(N3CCN(C(=O)CCCc4ccc(N(CCCl)CCCl)cc4)CC3)cc2)ncc1Cl: n
- CNC(=O)c1ccccc1Nc1nc(Nc2ccc(N3CCN(C(=O)c4ccc(N(CCCl)CCCl)cc4)CC3)cc2)ncc1Cl: n
- CNC(=O)c1ccccc1Nc1nc(Nc2ccc(N3CCN(CCOC(=O)CCCc4ccc(N(CCCl)CCCl)cc4)CC3)cc2)ncc1C(F)(F)F: y
- CNC(=O)c1ccccc1Nc1nc(Nc2ccc(N3CCN(CCOC(=O)CCCc4ccc(N(CCCl)CCCl)cc4)CC3)cc2)ncc1Cl: y
- CNC(=O)c1ccccc1Nc1nc(Nc2ccc(C3CCN(C(=O)CCCc4ccc(N(CCCl)CCCl)cc4)CC3)cc2)ncc1Cl: n
- CNC(=O)c1ccccc1Nc1nc(Nc2ccc(N3CCN(C(=O)c4ccc(N(CCCl)CCCl)cc4)CC3)cc2OC)ncc1Cl: n

* * *

- PROTOCOL_DETAILS: Cytotoxicity against human LO2 assessed as cell viability incubated for 48 hrs by MTT assay
- Assay type: toxicity, cell-based, L02
- MEASUREMENT_SETUP: LO2 cells
Entries and their IC50 at 48 h
MEASURED_METRIC: IC50 at 48 h (nM)

- CNC(=O)c1ccccc1Nc1nc(Nc2ccc(N3CCOCC3)cc2OC)ncc1Cl: 4140
- CNC(=O)c1ccccc1Nc1nc(Nc2ccc(N3CCN(CCOC(=O)CCCc4ccc(N(CCCl)CCCl)cc4)CC3)cc2)ncc1C(F)(F)F: 586
- CNC(=O)c1ccccc1Nc1nc(Nc2ccc(N3CCN(C)CC3)cc2)ncc1Cl: 801
- CNC(=O)c1ccccc1Nc1nc(Nc2ccc(N3CCN(CCOC(=O)c4ccc(N(CCCl)CCCl)cc4)CC3)cc2)ncc1C(F)(F)F: 1210

* * *

- PROTOCOL_DETAILS: Selectivity ratio of IC50 for cytotoxicity against human LO2 assessed as cell viability to IC50 for antiproliferative activity against human U-251 assessed as cell viability
- Assay type: toxicity
- MEASUREMENT_SETUP: LO2 cells versus U-251 cells, read-out: Ratio IC50
MEASURED_METRIC: selectivity ratio

- CNC(=O)c1ccccc1Nc1nc(Nc2ccc(N3CCN(CCOC(=O)CCCc4ccc(N(CCCl)CCCl)cc4)CC3)cc2)ncc1C(F)(F)F: > 40
- CNC(=O)c1ccccc1Nc1nc(Nc2ccc(N3CCN(CCOC(=O)c4ccc(N(CCCl)CCCl)cc4)CC3)cc2)ncc1C(F)(F)F: > 40
- CNC(=O)c1ccccc1Nc1nc(Nc2ccc(N3CCN(C)CC3)cc2)ncc1Cl: > 40

* * *

- PROTOCOL_DETAILS: Cytotoxicity against human 2BS assessed as cell viability incubated for 48 hrs by MTT assay
- Type: toxicity, cell-based
- MEASUREMENT_SETUP: 2BS cells
MEASURED_METRIC: IC50 at 48 h (µM)

• CNC(=O)c1ccccc1Nc1nc(Nc2ccc(N3CCOCC3)cc2OC)ncc1Cl = 42.8
• CNC(=O)c1ccccc1Nc1nc(Nc2ccc(N3CCN(CCOC(=O)CCCc4ccc(N(CCCl)CCCl)cc4)CC3)cc2)ncc1C(F)(F)F = 11.1
• CNC(=O)c1ccccc1Nc1nc(Nc2ccc(N3CCN(CCOC(=O)c4ccc(N(CCCl)CCCl)cc4)CC3)cc2)ncc1C(F)(F)F = 24.1
• CNC(=O)c1ccccc1Nc1nc(Nc2ccc(N3CCN(C)CC3)cc2)ncc1Cl = 11.6

Provenance of the data: ChEMBL document CHEMBL6153079
